Target: T1, human IL-17A (human, UniProt Q16552 20-155, limits assumed)
T1 construct: Bought from R&D Systems; also called IL-17 antigen (human IL17A)
T1 sequence (looked up): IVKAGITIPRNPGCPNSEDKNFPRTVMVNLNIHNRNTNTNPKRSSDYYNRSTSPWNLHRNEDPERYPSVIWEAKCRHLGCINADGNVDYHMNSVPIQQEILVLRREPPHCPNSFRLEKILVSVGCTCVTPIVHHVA
Assay: BLI (Octet Red96), antibody captured on AHC biosensor, human IL-17A in solution, 1:1 model, 25 C
pKd: −log10 of the molar value.
Entries annotated with measured pKd

| binder | pKd |
| --- | --- |
| PP10766 (antibody, human IgG4 S228P, kappa, V domains shown, Humanized, human IgG4/kappa; also called VH6667/VL6665) VH: EVQLVESGGGVVQPGRSLRLSCAASGFTFSTYGMSWVRQAPGKGLELVAIINHNGGSTFYPDSVKGRFTISRDNSKNTLYLQMNSLRAEDTAVYYCARDPRHDGYFFDYWGQGTLVTVSS VL: DIQMTQSPSSLSASVGDRVTITCQASEDIYDRLAWYQQKPGKAPKLLISGATSLETGVPSRFSGSGSGTDYTFTISSLQPEDIATYYCQQYWSVPWTFGGGTKVEIKR | > 12.00 |

Here's the next entry for you.
// query pKd value for entry PP10761 (antibody, human IgG4 S228P, kappa, V domains shown, Humanized, human IgG4/kappa; also called VH6665/VL6666) VH: EVQLVESGGGLVQPGGSLRLSCAASGFTFSTYGMSWVRQAPGKGLELVSIINHNGGSTFYPDSVKGRFTISRDNSKNTLYLQMNSLRAEDTAVYYCARDPRHDGYFFDYWGQGTLVTVSS VL: DIQMTQSPSSLSASVGDRVTITCQASEDIYDRLAWYQQKPGKAPKLLISGATSLETGVPSRFSGSGSGKDYTFTISSLQPEDIATYYCQQYWSVPWTFGGGTKVEIKR
> 12.00

The origin of these recorded values is patent US20210309735A1.
